Reference source: patent US20250170114A1

assay: Phase 2 trial: study drug plasma concentrations; format: in vivo, human; conditions: human, plasma, oral; Part B, Day 56
ENDPOINT NAME: concentration at 56 day (ng/mL)
The response must be a number in ng/mL with no trailing unit.

Lab note: measured concentration at 56 day of CC(C)(C)NC(=O)CN1CCC(CNC(=O)c2cc(F)cc(Cl)c2)CC1.Cl [Study drug] was 344
